- tested.target: KRAS protein containing G12D mutation (Homo sapiens (Human), UniProt P01116, G12D)
- Sequence (P01116 other isoform, or with tags, fused parts or gaps G12D (already in the parent)): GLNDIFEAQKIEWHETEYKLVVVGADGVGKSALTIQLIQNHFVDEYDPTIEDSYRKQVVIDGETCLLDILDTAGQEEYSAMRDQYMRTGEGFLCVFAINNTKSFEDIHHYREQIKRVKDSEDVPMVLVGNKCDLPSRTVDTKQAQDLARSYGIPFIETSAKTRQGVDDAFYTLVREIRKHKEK
- assay.text: SOS-catalyzed nucleotide exchange assay (GNE), TR-FRET
- Assay type: biochemical
- condition.details: biotinylated KRAS G12D, SOS and GTP, 60-minute incubation
Would you kindly list IC50 for each of these compounds?

{"compound": "C[C@]12CCC(CN(c3nc(OCC4(CN5CC6CCC(C5)O6)CC4)nc4c(F)c(-c5cc(O)cc6cccc(Cl)c56)c(F)cc34)C1)N2 (single isomer, unassigned)", "tested.target": "KRAS protein containing G12D mutation (Homo sapiens (Human), UniProt P01116, G12D)", "IC50": "210 nM"}
{"compound": "Cc1cc2[nH]ncc2c(-c2c(F)cc3c(N4C[C@H]5CC[C@@H](C4)N5)nc(OCC4(CN(C)C)CC4)nc3c2F)c1Cl", "tested.target": "KRAS protein containing G12D mutation (Homo sapiens (Human), UniProt P01116, G12D)", "IC50": "272 nM"}
{"compound": "C[C@]12CC[C@H](CN(c3nc(OC[C@@]45CCCN4C[C@H](F)C5)nc4c(F)c(-c5cncc6cccc(Cl)c56)c(F)cc34)C1)N2 (single isomer, unassigned)", "tested.target": "KRAS protein containing G12D mutation (Homo sapiens (Human), UniProt P01116, G12D)", "IC50": "414 nM"}
{"compound": "C[C@@]12CC[C@H](CN(c3nc(OC[C@@]45CCCN4C[C@H](F)C5)nc4c(F)c(-c5cc(O)cc6cccc(F)c56)c(F)cc34)C1)N2 (single isomer, unassigned) [Ex. 186a]", "tested.target": "KRAS protein containing G12D mutation (Homo sapiens (Human), UniProt P01116, G12D)", "IC50": "1.49 nM"}
{"compound": "CN(C)CC1(COc2nc(N3C[C@H]4CC[C@@](C)(C3)N4)c3cc(F)c(-c4cc(O)cc5ccccc45)c(F)c3n2)CC1 [Example 115]", "tested.target": "KRAS protein containing G12D mutation (Homo sapiens (Human), UniProt P01116, G12D)", "IC50": "10.5 nM"}

Batch lookup, IC50 per entry.
1. C#Cc1cccc2cc(O)c(C)c(-c3c(F)cc4c(N5CC6CC[C@@](C)(C5)N6)nc(OC[C@@]56CCCN5C[C@H](F)C6)nc4c3F)c12 (single isomer, unassigned) [Ex. 204a]
2. CNc1nc2c(-c3c(Cl)cc4c(N5CC6CCC(C5)N6)nc(OCC5(CN6CCOCC6)CC5)nc4c3F)ccc(F)c2s1
3. C[C@]12CC[C@H](CN(c3nc(OC[C@@]45CCCN4C[C@H](F)C5)nc4c(F)c(-c5nc(N)nc6cccc(Cl)c56)c(F)cc34)C1)N2
4. CN1[C@@H]2CC[C@H]1CN(c1nc(OC[C@@]34CCCN3C[C@H](F)C4)nc3c(F)c(-c4cc(O)cc5cccc(Cl)c45)c(F)cc13)C2
5. C[C@]12CC[C@H](CN(c3nc(OCC4(CN5CC[C@@H](F)C5)CC4)nc4c(F)c(-c5cc(O)cc6ccccc56)c(F)cc34)C1)N2
6. Cc1c(F)c(N)nc(-c2c(Cl)cc3c(N4C[C@H]5CC[C@@H](C4)N5)nc(OC[C@@]45CCCN4C[C@H](F)C5)nc3c2F)c1C(F)(F)F
7. CN(C)CC1(COc2nc(N3CC4CCC(F)(C3)N4)c3cc(Cl)c(-c4cc(O)cc5ccccc45)c(F)c3n2)CC1 (stereo not drawn)

["1.13 nM", "3930 nM", "3400 nM", "591 nM", "16.5 nM", "3.11 nM", "2560 nM"]

###

Would you kindly list IC50 for each of these compounds?
- tested.target: KRAS G12D / Ras binding domain of C-RAF (Homo sapiens (Human), UniProt P01116, G12D)
- assay.text: RAS:RAF-RBD binding assay (cRaf), TR-FRET
- condition.details: IC50 (nM) (cRaf), biotinylated KRAS G12D, GST-C-RAF RBD
Give bare numbers, in nM.

{"compound": "C[C@@]12CC[C@@H](CN(c3nc(OCC4(CN5CC[C@@H](F)C5)CC4)nc4c3CCN(c3cccc5cccc(Br)c35)C4)C1)N2 [compound 94]", "tested.target": "KRAS G12D / Ras binding domain of C-RAF (Homo sapiens (Human), UniProt P01116, G12D)", "obs.value": 32900}

Batch lookup, IC50 per entry.
1. CN(C)CC1(COc2nc(N3CC4CC(O)C(C3)N4)c3cc(Cl)c(-c4cc(O)cc5ccccc45)c(F)c3n2)CC1 (single isomer, unassigned) [Example 22b]
2. Oc1cc(-c2c(F)cc3c(N4CC5CC(O)C(C4)N5)nc(OCC4(CN5CCOCC5)CC4)nc3c2F)c2ccccc2c1 (single isomer, unassigned) [Example 16]
3. Cc1cc2[nH]ncc2c(-c2c(F)cc3c(N4C[C@H]5CC[C@@](C)(C4)N5)nc(OC[C@]4(CN(C)C)CC4(F)F)nc3c2F)c1C(F)(F)F (single isomer, unassigned) [Ex 76a]
4. Cc1c(Cl)cc2[nH]ncc2c1-c1c(F)cc2c(N3CC4CCC(C3)N4)nc(OCC3(CN(C)C)CC3)nc2c1F [Example 58]
5. COC1CC2CN(c3nc(OCC4(CN(C)C)CC4)nc4c(F)c(-c5cc(O)cc6ccccc56)c(F)cc34)CC1N2 (stereo not drawn) [Example 25]

1. 8450
2. 871
3. 1810
4. 45300
5. 20300

###

Would you kindly list log10 of IC50 for each of these molecules?
- tested.target: KRAS protein containing G12D mutation (Homo sapiens (Human), UniProt P01116, G12D)
- assay.text: SOS-catalyzed nucleotide exchange assay (GNE), TR-FRET
- Assay type: biochemical
- condition.details: biotinylated KRAS G12D, SOS and GTP, 60-minute incubation
Note the log scale: values are log10 of IC50 expressed in nM.

{"molecule": "CCc1cccc2cc(O)cc(-c3c(F)cc4c(N5CC6CC[C@@](C)(C5)N6)nc(OC[C@@]56CCCN5C[C@H](F)C6)nc4c3F)c12 (single isomer, unassigned) [Ex. 178b]", "tested.target": "KRAS protein containing G12D mutation (Homo sapiens (Human), UniProt P01116, G12D)", "log10 of IC50": 2.32}

Batch lookup, log10 of IC50 per entry.
1. CN(C)CC1(COc2nc(N3CC4CCC(C3)N4)c3cc(Cl)c(-c4cc(O)c(F)c5ccccc45)c(F)c3n2)CC1 [Example 57]
2. O=C(O)C1CC1COc1nc(N2CC3CCC(C2)N3)c2cc(F)c(-c3cc(O)cc4ccccc34)c(F)c2n1 (stereo not drawn) [Example 13]

1: 2.61; 2: 3.77

Batch lookup, log10 of IC50 per entry.
1. C[C@]12CCC(CN(c3nc(OC[C@@]45CCCN4C[C@H](F)C5)nc4c(F)c(-c5cccc6cccc(Cl)c56)c(F)cc34)C1)N2 (mixture of isomers) [Ex. 212]
2. C[C@]12CCC(CN(c3nc(OC[C@@]45CCCN4C[C@H](F)C5)nc4c(F)c(-c5cc(O)cc(Cl)c5C(F)(F)F)c(F)cc34)C1)N2 (single isomer, unassigned) [Ex. 183b]
3. CCC12CCC(CN(c3nc(OCC4(CN(C)C)CC4)nc4c(F)c(-c5cc(O)cc6ccccc56)c(F)cc34)C1)N2 (stereo not drawn) [Example 33]

2.26
0.60
1.95

Batch lookup, log10 of IC50 per entry.
1. Cc1cc(N)nc(-c2c(F)cc3c(N4CC5CCC(C4)N5)nc(OCC4(CN5CCOCC5)CC4)nc3c2F)c1C(F)(F)F [Ex. 87]
2. CN(C)CC1(COc2nc(N3CC4CCC(C3)N4)c3cc(Cl)c(-c4cc(O)ccc4C45CC(C4)C5)c(F)c3n2)CC1 [Example 47]

[1.57, 2.74]

###

Would you kindly list IC50 for each of these compounds?
- tested.target: KRAS protein containing G12D mutation (Homo sapiens (Human), UniProt P01116, G12D)
- assay.text: SOS-catalyzed nucleotide exchange assay (GNE), TR-FRET
- Type: biochemical
- condition.details: biotinylated KRAS G12D, SOS and GTP, 60-minute incubation
Answers are plain numbers, in nM.

{"compound": "CN(C)C[C@@]1(COc2nc(N3C[C@H]4CC[C@@](C)(C3)N4)c3cc(Cl)c(-c4c(F)cc(F)c5ccc(N)nc45)c(F)c3n2)CC1(F)F (single isomer, unassigned) [92a]", "tested.target": "KRAS protein containing G12D mutation (Homo sapiens (Human), UniProt P01116, G12D)", "IC50 (nM)": 11100}

Batch lookup, IC50 per entry.
1. Cc1nc(N)c(C#N)c(-c2c(F)cc3c(N4CC5CCC(C4)N5)nc(OC[C@@]45CCCN4C[C@H](F)C5)nc3c2F)c1C(F)(F)F (single isomer, unassigned) [Ex. 156b]
2. Cc1cc2[nH]ncc2c(-c2c(F)cc3c(N4CC5CCC(C4)N5)nc(OCC4(CN(C)C)CC4(F)F)nc3c2F)c1C (single isomer, unassigned) [Example 66a]

554
54

Batch lookup, IC50 per entry.
1. C#Cc1cccc2c(F)c(O)cc(-c3c(F)cc4c(N5C[C@H]6CC[C@@](C)(C5)N6)nc(OC[C@@]56CCCN5C[C@H](F)C6)nc4c3F)c12 [202b]
2. [2H]c1c([2H])c(C#C)c2c(-c3c(F)cc4c(N5C[C@H]6CC[C@@](C)(C5)N6)nc(OC[C@@]56CCCN5C[C@H](F)C6)nc4c3F)c([2H])c([2H])c([2H])c2c1[2H] [compound 241]

3.94
8.63
